biological target: EZH2 (Homo sapiens, UniProt Q15910); construct: the EZH2 enzyme was replaced with tumor protein extracts in each group; from tissue; host or cells: human tumour xenografts excised from treated nude mice; experiment: EZH2 enzyme activity in protein extracts of human tumor xenografts of treated mice (EZH2 Assay Kit); type: in vivo; settings: MDA-MB231 tumor grown in vivo; tumors excised 6 h after medication; SAHA 25 mg/kg
Sequence (Q15910 whole entry): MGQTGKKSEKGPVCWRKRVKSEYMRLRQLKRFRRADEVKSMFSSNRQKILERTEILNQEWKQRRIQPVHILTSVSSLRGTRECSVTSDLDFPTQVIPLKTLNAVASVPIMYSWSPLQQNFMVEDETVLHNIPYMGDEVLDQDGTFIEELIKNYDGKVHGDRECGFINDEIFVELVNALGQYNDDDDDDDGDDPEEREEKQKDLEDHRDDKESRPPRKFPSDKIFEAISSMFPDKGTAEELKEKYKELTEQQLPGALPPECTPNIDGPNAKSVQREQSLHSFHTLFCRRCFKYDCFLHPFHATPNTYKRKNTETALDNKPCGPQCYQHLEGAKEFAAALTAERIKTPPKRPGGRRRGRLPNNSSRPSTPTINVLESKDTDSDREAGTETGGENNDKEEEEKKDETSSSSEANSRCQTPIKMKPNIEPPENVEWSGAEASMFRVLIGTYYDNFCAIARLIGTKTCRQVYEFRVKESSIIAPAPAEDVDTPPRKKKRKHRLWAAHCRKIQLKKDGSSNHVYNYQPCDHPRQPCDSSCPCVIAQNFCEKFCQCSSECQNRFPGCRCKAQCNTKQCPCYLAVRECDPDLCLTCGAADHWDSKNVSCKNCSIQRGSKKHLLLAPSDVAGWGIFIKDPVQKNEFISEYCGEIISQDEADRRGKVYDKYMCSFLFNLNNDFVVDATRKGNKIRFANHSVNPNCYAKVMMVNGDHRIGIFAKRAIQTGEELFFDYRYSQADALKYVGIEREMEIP
Sequence (O75530 whole entry partner): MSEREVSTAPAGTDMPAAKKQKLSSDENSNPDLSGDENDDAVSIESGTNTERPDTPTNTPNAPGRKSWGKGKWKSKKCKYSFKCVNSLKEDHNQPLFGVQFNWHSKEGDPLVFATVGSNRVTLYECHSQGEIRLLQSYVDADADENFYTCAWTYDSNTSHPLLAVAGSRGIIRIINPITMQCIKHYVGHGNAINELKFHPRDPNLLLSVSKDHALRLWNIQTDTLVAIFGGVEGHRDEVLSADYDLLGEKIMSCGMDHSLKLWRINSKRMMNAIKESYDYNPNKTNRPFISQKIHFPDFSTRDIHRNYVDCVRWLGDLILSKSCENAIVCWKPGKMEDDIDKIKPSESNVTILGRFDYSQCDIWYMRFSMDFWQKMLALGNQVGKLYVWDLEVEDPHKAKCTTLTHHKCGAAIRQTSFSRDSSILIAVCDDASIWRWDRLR
Sequence (Q15022 whole entry partner): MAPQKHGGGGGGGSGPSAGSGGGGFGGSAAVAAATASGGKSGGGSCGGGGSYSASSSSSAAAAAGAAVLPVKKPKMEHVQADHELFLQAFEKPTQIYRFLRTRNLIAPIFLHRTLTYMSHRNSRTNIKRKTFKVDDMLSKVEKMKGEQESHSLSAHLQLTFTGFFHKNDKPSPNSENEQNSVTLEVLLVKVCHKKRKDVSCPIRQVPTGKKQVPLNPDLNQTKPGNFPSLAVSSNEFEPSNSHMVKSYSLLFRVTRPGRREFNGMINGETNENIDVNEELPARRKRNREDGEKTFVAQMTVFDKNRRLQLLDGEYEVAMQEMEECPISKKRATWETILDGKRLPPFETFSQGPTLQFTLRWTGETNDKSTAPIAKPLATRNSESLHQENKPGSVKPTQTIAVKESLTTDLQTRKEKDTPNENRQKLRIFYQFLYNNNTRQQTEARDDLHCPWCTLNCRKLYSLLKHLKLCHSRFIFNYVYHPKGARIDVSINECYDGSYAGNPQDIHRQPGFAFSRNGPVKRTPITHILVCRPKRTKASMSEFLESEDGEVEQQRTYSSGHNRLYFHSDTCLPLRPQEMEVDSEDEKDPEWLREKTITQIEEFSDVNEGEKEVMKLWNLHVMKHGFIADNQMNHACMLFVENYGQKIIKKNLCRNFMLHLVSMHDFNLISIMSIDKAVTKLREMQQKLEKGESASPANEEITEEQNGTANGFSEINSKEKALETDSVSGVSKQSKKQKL
readout kind: decrease of EZH2 enzyme activity/inhibition rate

compound	reading
CCNC(=O)CCC(NC(=O)c1cc2cc([N+](=O)[O-])ccc2oc1=O)C(=O)OCC (stereo in doubt)	63%*(MDA-MB231)
CCNC(=O)CC[C@@H](NC(=O)c1cc2cc(Cl)cc(Cl)c2oc1=O)C(=O)OCC	61%*(MDA-MB231)
CCNC(=O)CC[C@@H](NC(=O)c1cc2cc(Br)ccc2oc1=O)C(=O)OCC	58%*(MDA-MB231)
CCNC(=O)CC[C@@H](NC(=O)c1cc2cc(Cl)ccc2oc1=O)C(=O)OCC	58%*(MDA-MB231)
CCNC(=O)CC[C@@H](NC(=O)c1cc2cc(Br)cc(Br)c2oc1=O)C(=O)OCC	59%*(MDA-MB231)
CCNC(=O)CCC(NC(=O)c1cc2cc(F)ccc2oc1=O)C(=O)OCC (stereo in doubt)	59%*(MDA-MB231)
O=C(CCCCCCC(=O)Nc1ccccc1)NO [SAHA, suberoylanilide hydroxamic acid, reference compound]	55%*(MDA-MB231)
